# pIC50 annotations
- assay-target: human PDGFRβ (Homo sapiens, UniProt P09619)
- Construct: expressed in transfected cells
- Sequence (P09619 33-1106): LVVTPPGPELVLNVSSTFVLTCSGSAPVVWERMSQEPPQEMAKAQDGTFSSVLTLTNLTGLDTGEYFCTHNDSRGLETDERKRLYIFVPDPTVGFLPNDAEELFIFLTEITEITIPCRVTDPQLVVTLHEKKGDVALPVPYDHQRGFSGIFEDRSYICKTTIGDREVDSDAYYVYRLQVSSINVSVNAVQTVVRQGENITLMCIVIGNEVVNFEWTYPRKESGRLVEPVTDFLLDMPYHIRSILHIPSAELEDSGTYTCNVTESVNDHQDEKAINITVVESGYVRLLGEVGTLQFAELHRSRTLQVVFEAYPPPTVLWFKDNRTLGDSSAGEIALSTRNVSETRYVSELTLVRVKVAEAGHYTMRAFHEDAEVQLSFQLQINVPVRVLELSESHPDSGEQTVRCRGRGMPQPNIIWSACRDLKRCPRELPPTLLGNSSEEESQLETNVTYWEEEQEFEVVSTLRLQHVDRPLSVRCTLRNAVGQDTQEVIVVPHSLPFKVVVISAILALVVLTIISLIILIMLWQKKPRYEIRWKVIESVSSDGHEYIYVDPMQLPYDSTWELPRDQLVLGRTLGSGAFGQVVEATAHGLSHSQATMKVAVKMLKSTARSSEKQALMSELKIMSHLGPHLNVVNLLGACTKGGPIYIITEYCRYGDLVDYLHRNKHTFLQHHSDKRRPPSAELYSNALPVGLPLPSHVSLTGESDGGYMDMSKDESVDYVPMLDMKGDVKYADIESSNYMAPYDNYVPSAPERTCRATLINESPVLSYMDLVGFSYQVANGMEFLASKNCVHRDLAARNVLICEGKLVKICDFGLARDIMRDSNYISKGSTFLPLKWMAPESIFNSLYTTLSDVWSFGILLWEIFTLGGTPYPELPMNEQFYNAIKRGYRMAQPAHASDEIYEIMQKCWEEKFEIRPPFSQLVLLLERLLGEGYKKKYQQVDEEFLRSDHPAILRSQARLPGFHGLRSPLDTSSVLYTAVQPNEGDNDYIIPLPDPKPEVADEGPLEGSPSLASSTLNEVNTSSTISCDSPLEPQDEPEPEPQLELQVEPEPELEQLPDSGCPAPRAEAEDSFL
- assay-overview: PDGF dependent cell proliferation (MTS)
- Assay type: cell-based
- protocol-conditions: PDGFRβ NIH-3T3 cells, PDGF BB (50ng/ml), 72 hours, serum-free medium; read-out: Gl50 nM (PDGF ligand-dependent cell proliferation)
- Method: NIH-3T3 mouse fibroblasts cell line engineered to stably express human PDGFRβ was constructed and used to evaluate PDGF dependent cell proliferation. […] The effects on proliferation were determined by MTS method (Promega) according to the instruction. Incubation was performed for 2 hours at 37°C in CO2 incubator, and absorbance at 490nm was measured using an ELISA plate reader.
The quantity pIC50 is defined as the negative base-10 logarithm of the molar concentration.

What does the data say about its pIC50? Entry: COc1cc2ncnc(Oc3ccc4c(C(=O)Nc5ccccc5N)cccc4c3)c2cc1OC [Compound 16]
7.32

What does the data say about its pIC50? Entry: COc1ccc2c(Oc3ccc4c(C(=O)Nc5ccc(F)cc5N)cccc4c3)ccnc2c1 [Compound 32]
7.70

What does the data say about its pIC50? Entry: COc1ccc2c(Oc3ccc4c(C(=O)Nc5ccccc5N)cccc4c3)ccnc2c1 [Compound 31]
7.34

What does the data say about its pIC50? Entry: COc1cc2nccc(Oc3ccc4c(C(=O)NCc5ccc(C(=O)Nc6ccccc6N)cc5)cccc4c3)c2cc1OC [Compound 37]
6.80

Others:
What does the data say about its pIC50? Entry: Nc1ccccc1NC(=O)c1cccc2cc(Oc3ccnc4c(C(F)(F)F)cccc34)ccc12 [Compound 42]
7.32

What does the data say about its pIC50? Entry: COc1cc2ncnc(Oc3ccc4c(C(=O)Nc5ccc(Cl)cc5N)cccc4c3)c2cc1OC [Compound 20]
7.64

What does the data say about its pIC50? Entry: COc1cc2ncnc(Oc3ccc4c(C(=O)Nc5ccc(Br)cc5N)cccc4c3)c2cc1OC [Compound 21]
7.72

---

- Tested on: A549
- assay-overview: Tumor cell proliferation (MTS), A549
- Assay type: cell-based
- protocol-conditions: Homo sapiens; A549, 72 hours; read-out: Gl50 µM in A549
# log10 IC50 annotations
// units: µM (pre-log); metric: IC50; scale: log10

What reported log10 IC50 corresponds to COc1ccc2c(Oc3ccc4c(C(=O)NCc5ccc(C(=O)Nc6ccccc6N)cc5)cccc4c3)ccnc2c1 [Compound 33] on A549?
0.32

What reported log10 IC50 corresponds to COc1cc2nccc(Oc3ccc4c(C(=O)NCc5ccc(C(=O)Nc6ccccc6N)cn5)cccc4c3)c2cc1OC [Compound 38] on A549?
1.48

What reported log10 IC50 corresponds to COc1cc2ncnc(Oc3ccc4c(C(=O)Nc5ccccc5N)cccc4c3)c2cc1OC [Compound 16] on A549?
1.48

What reported log10 IC50 corresponds to COc1cc2nccc(Oc3ccc4c(C(=O)Nc5ccccc5N)cccc4c3)c2cc1OC [Compound 35] on A549?
0.89

What reported log10 IC50 corresponds to COc1cc2nccc(Oc3ccc4c(C(=O)NCc5ccc(C(=O)Nc6ccccc6N)cc5)cccc4c3)c2cc1OC [Compound 37] on A549?
1.48

What reported log10 IC50 corresponds to Nc1cc(F)ccc1NC(=O)c1ccc(CNC(=O)/C=C/c2cccnc2)cc1 [CS055, Chidamide, reference compound] on A549?
1.05

What reported log10 IC50 corresponds to COc1cc2ncnc(Oc3ccc4c(C(=O)Nc5ccc(F)cc5N)cccc4c3)c2cc1OC [Compound 17] on A549?
1.48

What reported log10 IC50 corresponds to COc1ccc2c(Oc3ccc4c(C(=O)Nc5ccc(F)cc5N)cccc4c3)ccnc2c1 [Compound 32] on A549?
0.92

What reported log10 IC50 corresponds to COc1ccc2c(Oc3ccc4c(C(=O)Nc5ccccc5N)cccc4c3)ccnc2c1 [Compound 31] on A549?
1.24

What reported log10 IC50 corresponds to COc1cc2ncnc(Oc3ccc4c(C(=O)NCc5ccc(C(=O)Nc6ccccc6N)cn5)cccc4c3)c2cc1OC [Compound 25] on A549?
1.48

Others:
What reported log10 IC50 corresponds to COc1cc2ncnc(Oc3ccc4c(C(=O)NCc5ccc(C(=O)Nc6ccccc6N)cc5)cccc4c3)c2cc1OC [Compound 23] on A549?
1.48

What reported log10 IC50 corresponds to COc1cc2nccc(Oc3ccc4c(C(=O)Nc5ccc(F)cc5N)cccc4c3)c2cc1OC [Compound 36] on A549?
0.87

Origin of values: patent EP2439195B1
